- experimentalDetails: reducers of endogenous Her2 protein level, primary screen, SKBR3 breast tumor cells, AlphaScreen, ATP viability (AID 461);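 also: percent of carrier control wells set as 100% viability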
- conditionDetails: 18-24 h, measured here: SKBR3 viability, ATP luminescence, at 10 µM
In plain terms, low viability, meaning strictly below 90%, gives T, and everything else gives F.

(Q) Lab log: compare recorded viability with 90%; is it strictly lower for Cc1ccsc1C1C2=C(CCCC2=O)Nc2ncnn21 (stereo not given) ?
(A) T

(Q) Regarding COc1ccc(OC)c(C2C(C(=O)Nc3cccnc3)=C(C)NC3=C2C(=O)CCC3)c1 (stereo not given) , kindly confirm whether its viability is beneath 90%.
(A) F

(Q) Input O=c1[nH]c(/C(=N\O)c2ccccc2)no1 ; condition: viability strictly below 90%. Does it hold?
(A) F

(Q) viability strictly < 90% for this compound? CCOC(=O)CC1=C(C(=O)OCC)C(c2ccc(C)o2)C(C#N)=C(N)O1 (stereo not given)
(A) F

(Q) I'd appreciate it if you could check whether COc1cccc(NC(=O)CSc2nnc(-c3cc(-c4ccccn4)nc4ccccc34)o2)c1 has viability smaller than 90%.
(A) F

(Q) Threshold test, viability < 90%: O=C(O)CCc1ccc(-c2ccc(Br)cc2)n1CC(=O)O
(A) F

(Q) Is the reported viability for Cc1nc(SCC#N)c2c(C)c(C)sc2n1 strictly below 90%?
(A) F

(Q) Determine whether this compound shows viability lower than 90% (ties excluded): CC(=O)c1cccc(NC(=O)N2CCCc3ccccc32)c1
(A) F

(Q) Consider COc1cc(S(=O)(=O)N2CCOCC2)ccc1NC(=O)COC(=O)c1ccccn1 . Does its viability lie strictly below 90%?
(A) F

(Q) viability strictly < 90% for this compound? Oc1cnc2ccccc2c1CN1CCOCC1
(A) F

(Q) Would you kindly verify if viability of CC(=O)Nc1ccc(S(=O)(=O)N2CCN(C(C)CCc3ccccc3)CC2)cc1 (stereo not given) is strictly less than 90%?
(A) T

(Q) Confirm or reject: viability of O=C(CCCC(=O)OCC(=O)NC1CCCC1)Nc1ccccn1 lies strictly below 90%
(A) F

(Q) Hello, I'm reviewing records and need to know if viability of Cc1ccc(S(=O)(=O)C2(C(=O)NC3CCCC3)CC2)cc1 is below 90%. Could you check?
(A) F

(Q) Lab note: confirm whether the reported viability for this compound is below 90%, equality not counting. compound: CCC(C)N=C1SCC(C)(/C=N/O)S1 (stereo not given)
(A) F

(Q) Threshold test, viability < 90%: CC(=O)c1cc(-c2ccc(F)cc2)n(CCC(=O)Nc2cc(C)[nH]n2)c1C
(A) F

(Q) Check if viability falls below 90% for CN(Cc1cccs1)c1ncnc2sccc12 .
(A) F

(Q) Dear colleague, could you confirm whether viability of COc1cccc(NC(=O)Nc2cccs2)c1 falls below 90%? Thanks.
(A) F

(Q) State whether 90% exceeds viability recorded for COCCCN1C(=O)C(O)=C(C(=O)c2ccco2)C1c1ccc(Br)cc1 (stereo not given) .
(A) F

(Q) Strictly below 90% in viability? CCOc1ccc(CNC(=O)C2CCCN(S(C)(=O)=O)C2)cc1OC (stereo not given)
(A) T

(Q) viability under 90%? Item: Cc1ccc(C)c(N(CC(=O)NCc2ccco2)C(=O)CCC(=O)Nc2ccccn2)c1
(A) F

(Q) Identify whether the compound CCOC(=O)c1sc2nc(C)cc(C)c2c1N records viability below 90%.
(A) F

(Q) Given the entry CCC(C)(C)n1nnnc1C(c1ccncc1)N1CCN(c2cccc(OC)c2)CC1 (stereo not given) , would its reported viability be below 90%?
(A) T

(Q) Does the reported viability of the following compound sit strictly below 90%? COC(=O)Cn1cnc2c(nnn2-c2ccc(C)cc2)c1=O
(A) T

(Q) Dear reviewer, please state whether O=c1cc(NCc2ccccc2)nc2n1CCCS2 has viability strictly beneath 90%.
(A) F

(Q) Dear colleague, could you confirm whether viability of COc1ccc(N2CCN(CCCNC(=O)C3CCCN(S(=O)(=O)c4cnc[nH]4)C3)CC2)cc1 (stereo not given) falls below 90%? Thanks.
(A) F

(Q) Bench note: check whether CCOC(=O)C1CCCN(Cc2nc(N)nc(Nc3ccc(C)cc3)n2)C1 (stereo not given) shows viability below 90%
(A) F

(Q) Could you please tell me whether viability recorded for O=C(Cn1nnc(-c2ccncc2)n1)Nc1ccc2c(c1)CCC2 is less than 90%?
(A) F

(Q) Take the compound COCn1c(COc2ccccc2)nc2ccccc21 and say whether its viability is less than 90%.
(A) T

###

- experimentalDetails: growth inhibitors of H69AR lung tumor, primary screen, human, duplicate replicates (AID 580);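 also: 100% = mean luminescence of untreated wells and 0% = no signal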
- conditionDetails: H69AR lung tumor cells viability, ATP luminescence, 72 h; at 10 µM
Calls of active or inactive are those of the source.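 Rule for the calls: active = viability at or under a set limit in both replicates, limit being median viability minus 3 SD (cut at about 48% in these data, passing the limit was not always enough); inconclusive = at or under the limit in just one replicate; inactive = at or above the limit in both replicates.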 Peptide text beside a SMILES is read from it. * marks the point of attachment. Boc = CC(C)(C)OC(=O)*
Respond using exactly one of the listed classes: label 1 (active), label 0 (inactive)

(Q) // return assay outcome for COCCn1c(C)cc(C(=O)COC(=O)c2n[nH]c3ccccc23)c1C
(A) label 0

(Q) How did this test come out for COc1cccc(Cn2c(Oc3ccccc3)nc3c2c(=O)n(C)c(=O)n3C)c1 ?
(A) label 0

(Q) Lab log entry: COc1ccccc1C(=O)Nc1ccc(S(=O)(=O)N2CCOCC2)cc1 — outcome as called in the assay?
(A) label 0

(Q) Tell me the assay call for CC1=C(C(=O)NCc2ccco2)C2(CCC(C)CC2)OC1=O (stereo unspecified) please.
(A) label 0

(Q) Write down the call the test reported for this compound. Item: CCCC(c1nnnn1Cc1ccc(OC)cc1)N1CCN(c2ccccc2OC)CC1 (stereo unspecified)
(A) label 0

(Q) So what was the verdict on CCOc1cc2[nH]c(=O)n(CCCCC(=O)N3CCCCCC3)c(=O)c2cc1OCC in this test?
(A) label 0

(Q) Assay result, entry Cn1c(=O)[nH]c2cc3ccccc3cc21 — outcome?
(A) label 0

(Q) Dear colleague, could you share the recorded outcome for N#CC1=C(N)Oc2n[nH]c(-c3ccncc3)c2C1c1ccsc1 (stereo unspecified) when you have a moment?
(A) label 0

(Q) I would be grateful if you could indicate the recorded call for CCOC(=O)C1CCCN(c2c(N3CCN(c4ccccn4)CC3)c(=O)c2=O)C1 (stereo unspecified) .
(A) label 0

(Q) So what was the verdict on Clc1cccc(Nc2c3c(nc4ncnn24)CCC3)c1 in this test?
(A) label 0

(Q) Identify the outcome logged in this assay for the compound shown: C=CCOc1cccc(C2/C(=C(\O)c3ccc(F)cc3)C(=O)C(=O)N2CCN(C)C)c1 (stereo unspecified)
(A) label 0

(Q) Can you look up the reported call for O=C(CSc1nc2ccccc2s1)N1CCN(C(=O)c2ccco2)CC1 for me?
(A) label 0

(Q) Record request — test call for CC1CCN(C(=O)CSc2nc3ccccc3[nH]2)CC1
(A) label 0

(Q) # lookup: test call for COc1cc(OC)c(C(=O)Nc2ccc(N(C)C)cc2)cc1OC
(A) label 0

(Q) Each compound tested received a call. Report the one for C(=N\n1cnnc1)/c1cccnc1 .
(A) label 0

(Q) # lookup: test call for COc1ccc(C2=NOC(C(=O)NCc3ccc(F)cc3)C2)cc1OC (stereo unspecified)
(A) label 1

(Q) Field: outcome | Entry: COC(=O)c1cc(OC)c(OCc2cc(C(=O)OC)oc2C)c(OC)c1
(A) label 0

(Q) // param item: COc1ccc(CNC(=O)CCc2nc(-c3ccccc3F)no2)c(OC)c1 ; yields the recorded call
(A) label 0

(Q) Outcome? O=C(CSc1nc2[nH]ncc2c(=O)n1-c1ccccc1Br)NCc1ccco1
(A) label 0

(Q) Given CC(C)C1Cc2c(C#N)c(N)sc(=S)c2CO1 (stereo unspecified) , state the outcome it received in this test.
(A) label 0

(Q) Please indicate how the test categorized CC(=O)Nc1ccccc1-c1nc2ccc(C(=O)N3CCN(c4ccccc4)CC3)cc2[nH]c1=O .
(A) label 0

(Q) Recorded test outcome, item Cc1occc1-c1nnc(SCC(=O)N2CCc3ccccc32)o1
(A) label 1

(Q) Given CCOC(=O)c1c(C)[nH]c(C)c1C(=O)COc1ccc(NC(=O)c2ccco2)cc1 , state the outcome it received in this test.
(A) label 0

(Q) Dear colleague, could you share the recorded outcome for N#Cc1nc(COc2ccccc2)oc1NCCCn1ccnc1 when you have a moment?
(A) label 0

(Q) Look up the recorded call for CCOC(=O)CSC1=C(C#N)C(=O)NC2(CCCCC2)S1 in this test.
(A) label 0

(Q) // outcome(item) with item = CC1CCCCC1NC(=O)c1ccc(N2CCCC2=O)cc1 (stereo unspecified)
(A) label 0

(Q) Hello, I am checking results. What call was entered for O=C(Cn1cccc1)N1CCN(C(c2ccccc2)c2ccccc2)CC1 ?
(A) label 0

(Q) I would be grateful if you could indicate the recorded call for O=C(Nc1ccccc1N1CCN(c2ccc(F)cc2)CC1)c1ccccc1 .
(A) label 0

(Q) Record lookup: outcome of this test for C/C(=N\O)C(=O)NCCCNCCCN(C)C ?
(A) label 0

(Q) # fetch the recorded call for CNC(=O)c1c(O)c2cccc3c2n(c1=O)CC3 here
(A) label 0

(Q) Hello, I am checking results. What call was entered for O=c1c2ccccc2nnn1CSc1nc2cc(Cl)ccc2c(=O)n1Cc1ccco1 ?
(A) label 0

(Q) Called result for CCCCNC(=O)c1c(C)cc(=O)oc1C
(A) label 0

(Q) In this assay, the call recorded for CCOC(=O)c1sc(N)c(C(=O)OCC)c1COC(=O)C1CC(=O)N(Cc2ccco2)C1 (stereo unspecified) was what?
(A) label 0

(Q) So what was the verdict on CC(NC(=O)OC(C)(C)C)C(=O)N1CCCC1C(=O)NC(Cc1ccccc1)C(N)=O (stereo not drawn) (Boc-Ala-Pro-Phe-NH2; configuration not given here) in this test?
(A) label 0

(Q) // outcome(item) with item = CC1CCN(S(=O)(=O)c2ccc(S(=O)(=O)NCC(=O)C(C)(C)C)cc2)CC1
(A) label 0

(Q) Please let me know the test result on file for Cc1cc(C)c(Cn2c(=O)n(CCCC(=O)NCc3ccco3)c(=O)c3ccccc32)c(C)c1 .
(A) label 0

(Q) Call for entry Cc1cc(C)n(CC2CC(=O)N(c3ccc(Cl)c(Cl)c3)C2=O)n1 (stereo unspecified) :
(A) label 0

(Q) How was CCc1ccc2c(CN(CC)Cc3nc4ccccc4c(=O)[nH]3)cc(=O)oc2c1 classified in this test?
(A) label 0

(Q) Dear all, I need the recorded test outcome for CCC(C)OC(=O)n1ccc(C(=O)Nc2nccs2)n1 (stereo unspecified) , thank you.
(A) label 0

(Q) Short answer needed: outcome of this test for S=C(c1ccc(-c2cc(Cl)ccc2Cl)o1)N1CCOCC1 ?
(A) label 0

(Q) Can you look up the reported call for CCSc1ncc(C#N)c(=O)[nH]1 for me?
(A) label 0

FYI, the data here is from PubChem BioAssay.
